# Tested on: Es-2
# ASSAY PROCEDURE: Confirmatory qHTS for gynecologic anti-cancer compounds from libraries of approved drugs and bioactive compounds; also: nearly all actives have a fitted effect of over 55% in size
# ASSAY CONDITIONS: gynecologic cancer cell panel viability, ATPlite luminescence, 48 h; series mostly up to 57.6 µM
Results filed as inconclusive are left out. Calls of active or inactive are those of the source. Calls follow the shape of the dose curve; as a rule, active = well fitted cell-killing curve with a large enough effect; inconclusive = small, poorly fitted or top-dose-only effect, or effect the other way; inactive = no such curve, though single readings can be large or run the other way.
Possible outcomes: yes for active, no for inactive

>  <MOLECULE>
Oc1cn2c(n1)Nc1ccc(Cl)c(Cl)c1C2

>  <GROUP LABEL>
no

$$$$
>  <MOLECULE>
CCN(CC)CCOc1ccc(/C(=C(\Cl)c2ccccc2)c2ccccc2)cc1

>  <GROUP LABEL>
yes

$$$$
>  <MOLECULE>
Nc1nc(=S)c2[nH]cnc2[nH]1

>  <GROUP LABEL>
yes

$$$$
>  <MOLECULE>
C[C@@H](Oc1cc(-c2cnn(C3CCNCC3)c2)cnc1N)c1c(Cl)ccc(F)c1Cl

>  <GROUP LABEL>
yes

$$$$
>  <MOLECULE>
CC(C)n1c(/C=C/[C@@H](O)C[C@@H](O)CC(=O)O)c(-c2ccc(F)cc2)c2ccccc21

>  <GROUP LABEL>
yes

$$$$
>  <MOLECULE>
Cc1cc(SCc2sc(-c3ccc(C(F)(F)F)cc3)nc2C)ccc1OCC(=O)O

>  <GROUP LABEL>
no

$$$$
>  <MOLECULE>
CCC1C(=O)N(C)c2cnc(Nc3ccc(C(=O)NC4CCC(N5CCN(CC6CC6)CC5)CC4)cc3OC)nc2N1C(C)C (stereo not given)

>  <GROUP LABEL>
yes

$$$$
>  <MOLECULE>
N#CC1(c2cccc(C(=O)Nc3cc(Oc4ccc5nc(NC(=O)C6CC6)sc5n4)ccc3F)c2Cl)CC1

>  <GROUP LABEL>
yes

$$$$
>  <MOLECULE>
CN(C)/N=N/c1nc[nH]c1C(N)=O

>  <GROUP LABEL>
no

$$$$
>  <MOLECULE>
COc1cc2c(NC3CCN(C(C)C)CC3)nc(C3CCCCC3)nc2cc1OCCCN1CCCC1

>  <GROUP LABEL>
yes

$$$$

====

# Test system: Es-2
# ASSAY PROCEDURE: Confirmatory qHTS for gynecologic anti-cancer compounds from libraries of approved drugs and bioactive compounds; also: nearly all actives have a fitted effect of over 55% in size
# ASSAY CONDITIONS: gynecologic cancer cell panel viability, ATPlite luminescence, 48 h; series mostly up to 57.6 µM
Records with an inconclusive call do not appear. Active and inactive are the calls of the source. Calls come from the whole dose curve; as a rule, active = well fitted cell-killing curve with a large enough effect; inconclusive = small, poorly fitted or top-dose-only effect, or effect the other way; inactive = no such curve, though single readings can be large or run the other way.
Outcomes: yes = active, no = inactive

>  <MOLECULE>
C#C[C@]1(O)CC[C@H]2[C@@H]3CCC4=CC(=O)CC[C@@H]4[C@H]3CC[C@@]21CC

>  <GROUP LABEL>
no

$$$$
>  <MOLECULE>
NCCOc1cc(C(=O)Nc2cc(OCCN)c3ccccc3n2)nc(C(=O)Nc2cc(OCCN)c3ccccc3n2)c1

>  <GROUP LABEL>
no

$$$$
>  <MOLECULE>
O=C(NOCC1CC1)c1ccc(F)c(F)c1Nc1ccc(I)cc1Cl

>  <GROUP LABEL>
yes

$$$$
>  <MOLECULE>
CCN1CCN(Cc2ccc(-c3cc4c(NC(C)c5ccccc5)ncnc4[nH]3)cc2)CC1 (stereo unspecified)

>  <GROUP LABEL>
yes

$$$$
>  <MOLECULE>
COc1cc(-c2nn(C3CCC(N4CCN(C(C)=O)CC4)CC3)c3ncnc(N)c23)ccc1NC(=O)c1cc2ccccc2n1C (stereo unspecified)

>  <GROUP LABEL>
yes

$$$$
>  <MOLECULE>
Cc1ccc(NC(=O)c2ccc(CN3CCN(C)CC3)cc2)cc1Nc1nccc(-c2cccnc2)n1

>  <GROUP LABEL>
no

$$$$
>  <MOLECULE>
CCCC(Nc1nc(-c2ccc(NC(=O)NCC)c(OC)c2)ncc1C)c1cccnc1 (stereo unspecified)

>  <GROUP LABEL>
yes

$$$$
>  <MOLECULE>
CO[C@@]12[C@H](COC(N)=O)C3=C(C(=O)C(C)=C(N)C3=O)N1C[C@@H]1N[C@@H]12

>  <GROUP LABEL>
no

$$$$
>  <MOLECULE>
CCC1C(=O)N(C)c2cnc(Nc3ccc(C(=O)NC4CCN(C)CC4)cc3OC)nc2N1C1CCCC1 (stereo unspecified)

>  <GROUP LABEL>
yes

$$$$
>  <MOLECULE>
Nc1ccccc1NC(=O)c1ccc(CNc2nccc(-c3cccnc3)n2)cc1

>  <GROUP LABEL>
yes

$$$$
>  <MOLECULE>
Nc1ccn([C@@H]2O[C@H](CO)[C@@H](O)C2(F)F)c(=O)n1

>  <GROUP LABEL>
yes

$$$$
>  <MOLECULE>
NS(=O)(=O)c1ccc(Nc2nc(OCC3CCCCC3)c3[nH]cnc3n2)cc1

>  <GROUP LABEL>
no

$$$$
>  <MOLECULE>
CNc1nccc(-c2cccnc2Oc2cc(C(=O)Nc3cccc(C(F)(F)F)c3)ccc2C)n1

>  <GROUP LABEL>
yes

$$$$
>  <MOLECULE>
COc1cc2c(cc1-c1c(C)noc1C)ncc1[nH]c(=O)n(C(C)c3ccccn3)c12 (stereo unspecified)

>  <GROUP LABEL>
yes

$$$$
>  <MOLECULE>
Cc1cc(CN2CCN(c3c(Br)cnc4nc(-c5ccc(N6CCN(C)CC6)cc5)[nH]c34)CC2)no1

>  <GROUP LABEL>
yes

$$$$
>  <MOLECULE>
COc1cc(F)c(F)c(Nc2ccc(I)cc2F)c1NS(=O)(=O)C1(CC(O)CO)CC1 (stereo unspecified)

>  <GROUP LABEL>
yes

$$$$
>  <MOLECULE>
Cc1cc(C(=O)N2CCN(c3cccc(Cl)c3)CC2)n(-c2ccccc2)n1

>  <GROUP LABEL>
yes

$$$$
>  <MOLECULE>
O=C(c1ccc(/C=C/c2n[nH]c3ccccc23)cc1)N1CCNCC1

>  <GROUP LABEL>
yes

$$$$
>  <MOLECULE>
Nc1nccc(Oc2ccc(NC(=O)c3c[nH]cc(-c4ccc(F)cc4)c3=O)cc2F)c1Cl

>  <GROUP LABEL>
yes

$$$$
>  <MOLECULE>
Cn1c(=O)c(-c2c(Cl)cccc2Cl)cc2cnc(Nc3cccc(C(=O)O)c3)nc21

>  <GROUP LABEL>
yes

$$$$
>  <MOLECULE>
O=C(/C=C/c1cccc(S(=O)(=O)Nc2ccccc2)c1)NO

>  <GROUP LABEL>
yes

$$$$
>  <MOLECULE>
CC1(C)[C@@H](O)CC[C@]2(C)[C@H]3C(=O)C=C4[C@@H]5C[C@@](C)(C(=O)O)CC[C@]5(C)CC[C@@]4(C)[C@]3(C)CC[C@@H]12

>  <GROUP LABEL>
no

$$$$
>  <MOLECULE>
CS(=O)(=O)c1ccc(-c2cnc(N)c(C(=O)Nc3ccccc3)n2)cc1

>  <GROUP LABEL>
no

$$$$
>  <MOLECULE>
CCCc1nn(C)c2c(=O)[nH]c(-c3cc(S(=O)(=O)N4CCN(C)CC4)ccc3OCC)nc12

>  <GROUP LABEL>
no

$$$$
>  <MOLECULE>
CN(C[C@@H]1COCCO1)S(=O)(=O)Nc1ccc2ccc3ncc(-c4cnn(C)c4)cc3c(=O)c2c1

>  <GROUP LABEL>
no

$$$$
>  <MOLECULE>
Cc1cnc(Nc2cccc(CN3CCOCC3)c2)nc1Nc1cccc(S(=O)(=O)NC(C)(C)C)c1

>  <GROUP LABEL>
yes

$$$$
>  <MOLECULE>
CC1=C(CO)C(=O)O[C@@H]([C@@H](C)[C@H]2CC[C@H]3[C@@H]4C[C@H]5O[C@]56[C@@H](O)C=CC(=O)[C@]6(C)[C@H]4CC[C@]23C)C1

>  <GROUP LABEL>
yes

$$$$
>  <MOLECULE>
COC(C)(C)CCn1nc(Nc2c(C)cccc2C)c2cnc(Nc3ccc(OCCN4CCCC4)c(F)c3)nc21

>  <GROUP LABEL>
no

$$$$
>  <MOLECULE>
CCCCc1oc2ccccc2c1C(=O)c1cc(I)c(OCCN(CC)CC)c(I)c1

>  <GROUP LABEL>
yes

$$$$
>  <MOLECULE>
Cc1cc(Nc2cc(N3CCN(C)CC3)nc(/C=C/c3ccccc3)n2)n[nH]1

>  <GROUP LABEL>
yes

$$$$
>  <MOLECULE>
CC(C)[C@@H](CS(=O)(=O)C(C)C)N1C(=O)[C@@](C)(CC(=O)O)C[C@H](c2cccc(Cl)c2)[C@H]1c1ccc(Cl)cc1

>  <GROUP LABEL>
no

$$$$
>  <MOLECULE>
Cc1ccc(C(=O)Nc2ccc(CN3CCN(C)CC3)c(C(F)(F)F)c2)cc1C#Cc1cnc2[nH]ncc2c1

>  <GROUP LABEL>
yes

$$$$
>  <MOLECULE>
COc1ccc2cc3[n+](cc2c1OC)CCc1cc2c(cc1-3)OCO2

>  <GROUP LABEL>
no

$$$$
>  <MOLECULE>
CCCCN(CCCC)CC(O)c1cc(Cl)cc2c1-c1ccc(Cl)cc1/C2=C/c1ccc(Cl)cc1 (stereo unspecified)

>  <GROUP LABEL>
no

$$$$
>  <MOLECULE>
CCS(=O)(=O)c1cccc(-c2cc(C(=O)NC3CCN(C)CC3)c(C)c3[nH]c4ncc(C)cc4c23)c1

>  <GROUP LABEL>
yes

$$$$
>  <MOLECULE>
O=c1c2ccccc2nc2n1CCc1c-2[nH]c2ccccc12

>  <GROUP LABEL>
no

$$$$

Each recorded value in this set is attributed to PubChem BioAssay AID1345085.
